- target-or-test-system: Ba/F3-KDR-transfected cells (Homo sapiens, UniProt P35968)
- Sequence (P35968 whole entry, change not shown): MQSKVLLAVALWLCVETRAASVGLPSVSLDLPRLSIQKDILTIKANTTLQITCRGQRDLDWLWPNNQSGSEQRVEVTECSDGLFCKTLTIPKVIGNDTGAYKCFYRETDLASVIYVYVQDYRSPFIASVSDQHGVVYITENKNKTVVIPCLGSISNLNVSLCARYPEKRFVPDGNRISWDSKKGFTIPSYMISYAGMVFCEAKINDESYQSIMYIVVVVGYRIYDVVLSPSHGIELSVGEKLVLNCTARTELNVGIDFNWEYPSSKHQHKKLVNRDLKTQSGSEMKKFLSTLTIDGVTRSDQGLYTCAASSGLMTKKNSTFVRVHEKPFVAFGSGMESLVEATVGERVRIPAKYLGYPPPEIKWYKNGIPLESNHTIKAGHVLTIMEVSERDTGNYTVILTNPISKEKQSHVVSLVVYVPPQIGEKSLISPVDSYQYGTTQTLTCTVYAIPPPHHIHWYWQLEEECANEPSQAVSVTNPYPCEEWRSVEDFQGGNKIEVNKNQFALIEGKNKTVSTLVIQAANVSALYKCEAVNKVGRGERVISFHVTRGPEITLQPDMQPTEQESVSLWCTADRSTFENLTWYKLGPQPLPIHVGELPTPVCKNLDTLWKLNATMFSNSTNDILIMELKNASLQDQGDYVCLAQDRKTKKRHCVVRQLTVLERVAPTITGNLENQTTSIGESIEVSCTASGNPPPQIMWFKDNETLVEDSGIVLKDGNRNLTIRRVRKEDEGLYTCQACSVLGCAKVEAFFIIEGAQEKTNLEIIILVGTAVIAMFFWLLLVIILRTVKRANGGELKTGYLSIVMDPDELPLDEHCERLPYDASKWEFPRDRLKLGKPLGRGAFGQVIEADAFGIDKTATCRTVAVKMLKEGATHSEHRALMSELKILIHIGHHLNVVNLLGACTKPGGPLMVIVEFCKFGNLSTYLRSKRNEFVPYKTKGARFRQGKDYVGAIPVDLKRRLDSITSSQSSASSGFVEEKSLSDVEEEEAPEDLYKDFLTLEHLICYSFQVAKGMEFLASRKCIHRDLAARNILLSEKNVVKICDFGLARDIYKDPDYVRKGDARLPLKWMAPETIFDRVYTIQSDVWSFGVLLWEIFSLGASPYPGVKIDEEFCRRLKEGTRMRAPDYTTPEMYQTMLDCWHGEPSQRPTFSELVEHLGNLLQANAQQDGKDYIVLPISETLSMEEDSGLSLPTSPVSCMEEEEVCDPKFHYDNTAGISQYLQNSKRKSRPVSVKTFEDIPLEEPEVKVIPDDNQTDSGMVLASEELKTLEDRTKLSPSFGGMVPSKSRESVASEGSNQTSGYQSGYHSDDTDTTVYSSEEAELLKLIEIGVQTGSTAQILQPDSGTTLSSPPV
- assay-overview: Ba/F3-KDR (minus IL3) cellular proliferation assay, Alamar Blue
- Format: cell-based
- run-parameters: minus IL3
Listing: BAF3-KDR (MIN IL3) 384 well pIC50 of selected compounds

Please review the entries below; each comes with its answer.
>  <smiles-structure>
COc1cc(OC)cc(N(CCCNCC(F)(F)F)c2ccc3ncc(-c4ccnc(C(=O)NCCCN)c4)nc3c2)c1

>  <BAF3-KDR (MIN IL3) 384 well pIC50>
<5

$$$$
>  <smiles-structure>
COc1cc(OC)cc(N(CCCO)c2ccc3ncc(-c4ccnc(C(=O)NCCCCN)c4)nc3c2)c1

>  <BAF3-KDR (MIN IL3) 384 well pIC50>
<5

$$$$

Write BAF3-KDR (MIN IL3) 384 well pIC50 of COc1cc(OC)cc(N(CC2CC2)c2ccc3ncc(-c4cnco4)nc3c2)c1 ; system used: Ba/F3-KDR-transfected cells (Homo sapiens, UniProt P35968) <5

Reference source: patent US10052320B2
